Where do these numbers come from? They come from patent US20120225061A1.

Biological target: Pim1 kinase (Homo sapiens)
Test: Pim1 AlphaScreen assay (high ATP)
metric: pIC50
Please express pIC50 as -log10 of the molar concentration.

Guide cases for pIC50, answers given:
>>> df
                                   molecule  test_result
0  CC(C)c1cc(F)c(-c2nc(C(=O)Nc3cnccc3[C@H]3C[C@@H](N)[C@](C)(O)[C@@H](C)C3)ccc2F)c(F)c1        10.70
1  COc1cc(F)c(-c2nc(C(=O)Nc3cnccc3[C@H]3C[C@@H](C)[C@](C)(O)[C@@H](N)C3)ccc2F)c(F)c1         8.37
2  C[C@H]1C[C@@H](c2ccncc2NC(=O)c2nc(-c3nc(F)ccc3F)ccc2N)C[C@@H](O)[C@]1(C)O         7.64
3  C[C@@H]1C[C@H](c2ccncc2NC(=O)c2ccc(F)c(-c3c(F)cc(OC4CCOCC4)cc3F)n2)C[C@H](O)[C@@]1(C)O         7.73
4  C[C@H]1C[C@@H](c2ccncc2NC(=O)c2ccc(F)c(-c3c(F)cc(S(C)(=O)=O)cc3F)n2)C[C@@H](O)[C@]1(C)O         8.07

Read the next record carefully.
Requested read-out: pIC50. Entry: CC[C@]1(O)[C@H](C)C[C@H](c2ccncc2NC(=O)c2ccc(F)c(-c3c(F)cccc3F)n2)C[C@@H]1N 7.58

###

Biological target: Pim1 kinase (Homo sapiens, UniProt P11309)
Sequence (P11309 whole entry): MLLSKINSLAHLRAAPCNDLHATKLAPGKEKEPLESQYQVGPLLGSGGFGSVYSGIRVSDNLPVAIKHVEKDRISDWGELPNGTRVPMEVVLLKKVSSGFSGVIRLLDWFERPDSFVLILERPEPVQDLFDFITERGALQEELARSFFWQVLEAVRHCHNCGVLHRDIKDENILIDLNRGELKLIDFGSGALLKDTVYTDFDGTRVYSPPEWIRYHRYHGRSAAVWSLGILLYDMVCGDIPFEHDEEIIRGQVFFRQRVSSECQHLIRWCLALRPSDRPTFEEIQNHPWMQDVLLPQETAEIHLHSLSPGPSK
Experiment: KinaseGlo Pim1 ATP depletion assay
Format: biochemical
Conditions: Table 4, 2.5 nM PIM1, 20 μM ATP, 40 μM BAD peptide
Reported log10 IC50 values follow for various compounds
Scale: decimal log of IC50, IC50 in nM.

                                   compound  test_result
0  C[C@H]1C[C@@H](c2ccncc2NC(=O)c2nc(-c3c(F)cccc3F)c(F)cc2N)C[C@@H](O)[C@]1(C)O        -0.40
1  C[C@@H]1C[C@H](c2ccncc2NC(=O)c2ccc(F)c(-c3c(F)cccc3F)n2)C[C@H](O)[C@]1(O)CO         1.29
2  CC[C@]1(O)[C@H](O)C[C@H](c2ccncc2NC(=O)c2nc(-c3c(F)cccc3F)ccc2N)C[C@@H]1C        -0.40
3  CC(=O)OC[C@]1(O)[C@H](C)C[C@H](c2ccncc2NC(=O)c2ccc(F)c(-c3c(F)cccc3F)n2)C[C@@H]1O         0.93
4  C[C@H]1C[C@@H](c2ccncc2NC(=O)c2nc(-c3nc(Cl)ccc3F)ccc2N)C[C@@H](O)[C@]1(C)O         0.00
5  CC[C@]1(O)[C@H](C)C[C@H](c2ccncc2NC(=O)c2ccc(F)c(-c3c(F)cccc3F)n2)C[C@@H]1O         1.65

Name the recorded log10 IC50 for C[C@H]1C[C@@H](c2ccncc2NC(=O)c2ccc(F)c(-c3c(F)cccc3F)n2)C[C@@H](O)C1(O)CO (stereo in doubt) . -0.52

State the recorded log10 IC50 for this entry: C[C@H]1C[C@@H](c2ccncc2NC(=O)c2nc(-c3ncccc3Cl)ccc2N)C[C@@H](O)[C@]1(C)O -0.15

Given CC[C@]1(O)[C@H](O)C[C@H](c2ccncc2NC(=O)c2nc(-c3c(F)cccc3F)ncc2N)C[C@@H]1C , state its recorded log10 IC50. -0.22

###

Biological target: Pim2 kinase (Homo sapiens)
Sequence (Q9P1W9 whole entry): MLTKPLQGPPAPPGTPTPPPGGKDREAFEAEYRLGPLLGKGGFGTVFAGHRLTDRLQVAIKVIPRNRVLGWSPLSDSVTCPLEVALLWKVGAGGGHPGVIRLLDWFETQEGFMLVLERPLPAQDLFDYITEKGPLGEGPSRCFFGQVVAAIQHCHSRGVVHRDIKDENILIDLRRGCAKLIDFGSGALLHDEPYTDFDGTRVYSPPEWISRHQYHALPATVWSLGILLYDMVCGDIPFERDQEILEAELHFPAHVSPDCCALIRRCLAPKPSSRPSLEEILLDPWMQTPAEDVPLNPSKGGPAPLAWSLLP
Test: KinaseGlo Pim2 ATP depletion assay
Assay type: biochemical
Settings: Table 4, 5 nM PIM2, 4 μM ATP, 10 μM BAD peptide
IC50 for assorted compounds
Just the number in nM, nothing appended.

>>> df
                                   compound  metric  test_result
0  C[C@@H]1C[C@H](c2ccncc2NC(=O)c2ccc(F)c(-c3c(F)ccc(N)c3F)n2)C[C@H](O)[C@@]1(C)O [Example 55]    IC50          740
1  C[C@H]1C[C@@H](c2ccncc2NC(=O)c2ccc(F)c(-c3c(F)cccc3F)n2)C[C@@H](N)[C@]1(C)O [Example 27]    IC50          3.8
2  C[C@H]1C[C@@H](c2ccncc2NC(=O)c2ccc(F)c(-c3c(F)cccc3F)n2)C[C@@H](O)C1(O)CO (stereo in doubt) [Example 59]    IC50          1.5

Name the reported IC50 value associated with the compound C[C@H]1C[C@@H](c2ccncc2NC(=O)c2nc(-c3nccs3)ccc2N)C[C@@H](O)[C@]1(C)O [Example 52] 13.5

###

pIC50 values, listed per item
Target: Pim2 kinase (Homo sapiens)
Assay: KinaseGlo Pim2 ATP depletion assay
Format: biochemical
Conditions: Table 4, 5 nM PIM2, 4 μM ATP, 10 μM BAD peptide
Scale note: pIC50 = -log10(concentration in M).

// solved cases for pIC50 follow
>>> df
                               query_smiles           system_under_test  metric  test_result
0  C[C@@H]1C[C@H](c2ccncc2NC(=O)c2cccc(-c3c(F)cccc3F)n2)C[C@H](O)[C@@]1(C)O  Pim2 kinase (Homo sapiens)   pIC50         6.64
1  C[C@H]1C[C@@H](c2ccncc2NC(=O)c2nc(-c3cccc(F)n3)c(F)cc2N)C[C@@H](O)[C@]1(C)O  Pim2 kinase (Homo sapiens)   pIC50         7.37
2  C[C@H]1C[C@@H](c2ccncc2NC(=O)c2ccc(F)c(-c3c(F)cccc3F)n2)C[C@@H](O)[C@@]1(O)CF  Pim2 kinase (Homo sapiens)   pIC50         8.66

Moving on to another compound below.
// lookup pIC50 for C[C@H]1C[C@@H](c2ccncc2NC(=O)c2nc(-c3c(F)cccc3F)c(F)cc2N)C[C@@H](O)[C@]1(C)O 8.89

###

Molecular target: Pim3 kinase (Homo sapiens, UniProt Q86V86)
Assay: Pim3 AlphaScreen assay (high ATP)
compounds and their reported log10 of IC50
Remember, log10 of IC50, in nM.

                                   compound         metric  test_result
0  CC1C[C@@H](c2ccncc2NC(=O)c2ccc(F)c(-c3c(F)cc(Oc4ccncc4)cc3F)n2)C[C@@H](O)[C@]1(C)O (stereo in doubt)  log10 of IC50         2.28

Would you kindly share the measured log10 of IC50 for C[C@@H]1C[C@H](c2ccncc2NC(=O)c2nc(-c3c(F)cccc3F)ccc2N)C[C@H](O)[C@]1(O)CF ? 2.81

Endpoint output: log10 of IC50 of C[C@H]1C[C@@H](c2ccncc2NC(=O)c2nc(-c3ccc(F)cn3)ccc2N)C[C@@H](O)[C@]1(C)O . Value? 3.53

Reported log10 of IC50, compound COCc1cc(F)c(-c2nc(C(=O)Nc3cnccc3[C@H]3C[C@@H](N)[C@](C)(O)[C@@H](C)C3)ccc2F)c(F)c1 : ____ 0.39

What measured log10 of IC50 goes with C[C@H]1C[C@@H](c2ccncc2NC(=O)c2ccc(F)c(-c3c(F)cc(CN4CCCC4=O)cc3F)n2)C[C@@H](O)[C@]1(C)O ? 1.92

Would you kindly share the measured log10 of IC50 for C[C@H]1C[C@@H](c2ccncc2NC(=O)c2ccc(F)c(-c3c(F)cc(C4(O)CCCC4)cc3F)n2)C[C@@H](N)[C@]1(C)O ? 0.07

Reported log10 of IC50 for C[C@H]1C[C@@H](c2ccncc2NC(=O)c2ccc(F)c(-c3c(F)cc(COC4CCOCC4)cc3F)n2)C[C@@H](N)[C@]1(C)O : what is it? 0.34

Returns the measured log10 of IC50 for the input compound. Input: C[C@H]1C[C@@H](c2ccncc2NC(=O)c2ccc(F)c(-c3ccc(F)c(F)c3)n2)C[C@@H](O)[C@]1(C)O 3.74

Using the record for C[C@H]1C[C@@H](c2ccncc2NC(=O)c2csc(-c3c(F)cccc3F)n2)C[C@@H](N)[C@]1(C)O , report its log10 of IC50. 1.24

Param item = CC[C@]1(O)[C@H](C)C[C@H](c2ccncc2NC(=O)c2ccc(F)c(-c3c(F)cccc3F)n2)C[C@@H]1N ; retrieve measured log10 of IC50. 2.48

Please report the recorded log10 of IC50 for CCN1CCC(c2cc(F)c(-c3nc(C(=O)Nc4cnccc4[C@H]4C[C@@H](O)[C@](C)(O)[C@@H](C)C4)ccc3F)c(F)c2)CC1 . 1.52

# query: log10 of IC50 of entry C[C@@H]1C[C@H](c2ccncc2NC(=O)c2ccc(F)c(-c3c(F)cc(C4(O)CCCC4)cc3F)n2)C[C@H](O)[C@@]1(C)O 2.67

Entry C[C@H]1C[C@@H](c2ccncc2NC(=O)c2nc(-c3c(F)cc(C(C)(C)O)cc3F)ccc2N)C[C@@H](O)[C@]1(C)O has what log10 of IC50? 0.84
